Biological target: T1, alpha4beta7 on 38C13 alpha4+ murine lymphoma cells transfected with integrin beta7 (38C13beta7 cells) (murine, UniProt Q00651 41-1039; P26011 20-806)
T1 construct: whole, on cells; also called 38C13-beta7 expressing cells; murine beta7-containing receptor
T1 sequence (Q00651 41-1039, chain 1 of 2): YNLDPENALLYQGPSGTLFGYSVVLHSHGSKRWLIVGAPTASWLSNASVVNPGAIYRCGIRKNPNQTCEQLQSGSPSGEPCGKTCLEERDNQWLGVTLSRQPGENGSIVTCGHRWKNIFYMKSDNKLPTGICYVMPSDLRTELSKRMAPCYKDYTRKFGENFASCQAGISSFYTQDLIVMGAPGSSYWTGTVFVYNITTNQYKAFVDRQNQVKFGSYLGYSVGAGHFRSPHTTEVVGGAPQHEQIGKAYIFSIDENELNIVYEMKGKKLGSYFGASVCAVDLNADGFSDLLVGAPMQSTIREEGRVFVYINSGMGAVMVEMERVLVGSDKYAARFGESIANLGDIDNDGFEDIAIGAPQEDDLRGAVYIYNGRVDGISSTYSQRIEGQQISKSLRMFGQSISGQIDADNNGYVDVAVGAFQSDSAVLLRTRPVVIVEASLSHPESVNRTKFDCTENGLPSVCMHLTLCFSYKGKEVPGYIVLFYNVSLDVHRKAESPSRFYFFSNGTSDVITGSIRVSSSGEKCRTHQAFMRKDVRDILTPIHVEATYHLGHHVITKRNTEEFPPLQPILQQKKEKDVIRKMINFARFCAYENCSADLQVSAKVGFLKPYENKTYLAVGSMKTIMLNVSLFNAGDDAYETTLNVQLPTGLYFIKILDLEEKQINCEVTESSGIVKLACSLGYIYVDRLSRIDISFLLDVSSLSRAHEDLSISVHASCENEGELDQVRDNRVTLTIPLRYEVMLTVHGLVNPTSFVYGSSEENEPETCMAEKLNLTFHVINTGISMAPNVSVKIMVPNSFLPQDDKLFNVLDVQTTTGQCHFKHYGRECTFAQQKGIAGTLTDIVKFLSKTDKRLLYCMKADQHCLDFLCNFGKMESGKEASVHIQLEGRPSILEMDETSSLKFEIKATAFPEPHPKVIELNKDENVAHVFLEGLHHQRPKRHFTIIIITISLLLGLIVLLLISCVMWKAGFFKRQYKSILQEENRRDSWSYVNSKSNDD
T1 sequence (P26011 20-806, chain 2 of 2): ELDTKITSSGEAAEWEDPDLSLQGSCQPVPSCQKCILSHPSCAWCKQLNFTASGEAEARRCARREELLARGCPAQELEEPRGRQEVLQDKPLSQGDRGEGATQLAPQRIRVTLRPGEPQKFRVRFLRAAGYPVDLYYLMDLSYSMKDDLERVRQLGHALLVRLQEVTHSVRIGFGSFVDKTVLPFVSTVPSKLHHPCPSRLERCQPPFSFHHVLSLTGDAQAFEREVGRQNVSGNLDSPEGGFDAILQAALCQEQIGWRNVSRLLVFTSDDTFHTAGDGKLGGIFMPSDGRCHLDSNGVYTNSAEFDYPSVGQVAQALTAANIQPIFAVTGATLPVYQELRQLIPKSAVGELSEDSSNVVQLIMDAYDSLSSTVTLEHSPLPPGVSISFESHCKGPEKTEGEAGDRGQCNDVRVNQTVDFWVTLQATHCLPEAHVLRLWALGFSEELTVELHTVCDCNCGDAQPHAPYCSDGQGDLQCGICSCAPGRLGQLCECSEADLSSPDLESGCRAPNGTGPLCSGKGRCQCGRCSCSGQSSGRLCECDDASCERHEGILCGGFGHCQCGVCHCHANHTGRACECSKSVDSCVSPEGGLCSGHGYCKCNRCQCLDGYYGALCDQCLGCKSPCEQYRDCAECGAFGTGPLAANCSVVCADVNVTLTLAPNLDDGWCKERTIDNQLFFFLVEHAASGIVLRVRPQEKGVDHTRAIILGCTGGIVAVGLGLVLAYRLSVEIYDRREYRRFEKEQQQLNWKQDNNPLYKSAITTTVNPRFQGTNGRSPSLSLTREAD
Assay: cell adhesion inhibition, 38C13beta7 cells on coated muMAdCAM-1-Ig, experiment 2 of 2
measurement.type: pIC50
Please treat pIC50 as minus the base-10 logarithm of the molar concentration.

// solved cases for pIC50 follow
binder	pIC50
Rat Fib504 (antibody FIB504.64 produced by hybridoma ATCC HB-293) (antibody, V domains shown, Whole rat antibody in the cell adhesion assays; also called rat anti-mouse beta7 antibody) VH: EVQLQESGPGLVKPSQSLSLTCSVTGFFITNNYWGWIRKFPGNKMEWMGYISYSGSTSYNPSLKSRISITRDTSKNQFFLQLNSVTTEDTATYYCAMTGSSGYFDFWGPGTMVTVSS VL: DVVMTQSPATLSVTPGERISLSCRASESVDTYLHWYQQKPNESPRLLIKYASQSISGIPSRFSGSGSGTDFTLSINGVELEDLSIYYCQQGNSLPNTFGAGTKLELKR	9.51
Variant hu504.32, IgG (antibody, V domains shown, methionine at heavy chain position 94; also called hu504.32M; 504.32M) VH: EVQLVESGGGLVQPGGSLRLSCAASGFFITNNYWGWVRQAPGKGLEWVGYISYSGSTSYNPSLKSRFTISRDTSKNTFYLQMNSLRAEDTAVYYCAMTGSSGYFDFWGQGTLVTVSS VL: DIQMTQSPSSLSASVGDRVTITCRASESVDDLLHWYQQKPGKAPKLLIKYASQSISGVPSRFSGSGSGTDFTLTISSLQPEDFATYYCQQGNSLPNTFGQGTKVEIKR	9.34
Variant hu504.5, IgG (antibody, name in Kabat numbering, V domains shown) VH: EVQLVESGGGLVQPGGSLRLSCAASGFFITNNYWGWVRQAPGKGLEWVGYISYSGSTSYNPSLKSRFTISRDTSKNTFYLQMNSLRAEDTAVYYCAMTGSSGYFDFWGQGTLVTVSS VL: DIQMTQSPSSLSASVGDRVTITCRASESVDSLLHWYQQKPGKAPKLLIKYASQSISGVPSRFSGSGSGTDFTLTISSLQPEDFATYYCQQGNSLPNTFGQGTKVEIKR	9.33

Now consider a different binder.
Any idea what its pIC50 is? The binder is Variant hu504.16, IgG (antibody, name in Kabat numbering, V domains shown) VH: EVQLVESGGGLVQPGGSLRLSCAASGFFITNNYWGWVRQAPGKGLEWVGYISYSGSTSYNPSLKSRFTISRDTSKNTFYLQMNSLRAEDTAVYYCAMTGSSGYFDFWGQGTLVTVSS VL: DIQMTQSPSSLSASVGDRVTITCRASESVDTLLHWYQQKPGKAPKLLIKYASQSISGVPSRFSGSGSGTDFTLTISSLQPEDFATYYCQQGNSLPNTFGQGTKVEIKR
9.21
